From: patent US20180185504A1

Biological target: T1, human prolactin receptor (PRLR) (human, UniProt P16471 25-622)
T1 sequence: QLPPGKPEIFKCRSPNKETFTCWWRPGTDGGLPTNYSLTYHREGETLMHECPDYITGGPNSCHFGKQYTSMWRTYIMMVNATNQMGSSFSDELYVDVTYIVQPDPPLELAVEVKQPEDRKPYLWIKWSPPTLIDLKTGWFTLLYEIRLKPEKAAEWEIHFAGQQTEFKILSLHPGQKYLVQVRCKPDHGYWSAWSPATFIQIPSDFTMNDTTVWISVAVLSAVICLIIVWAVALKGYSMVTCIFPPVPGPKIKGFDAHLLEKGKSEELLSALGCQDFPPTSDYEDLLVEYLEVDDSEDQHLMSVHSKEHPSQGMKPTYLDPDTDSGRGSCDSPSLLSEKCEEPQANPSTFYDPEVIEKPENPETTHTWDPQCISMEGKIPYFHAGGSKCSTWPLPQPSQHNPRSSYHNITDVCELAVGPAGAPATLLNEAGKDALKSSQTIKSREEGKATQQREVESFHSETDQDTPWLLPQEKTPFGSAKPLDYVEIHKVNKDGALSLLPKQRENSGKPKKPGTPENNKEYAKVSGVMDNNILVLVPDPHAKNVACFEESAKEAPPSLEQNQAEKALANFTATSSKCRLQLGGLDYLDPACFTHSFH
Experiment: cell-based or functional assay
METRIC: IC50, cell viability, T47D cells (nM)
Kindly provide the numeric value in nM only, without the unit symbol.

Look over these answered cases.
Q: Consider the binder shown here: H1H6953N-mc-VC-PAB-MMD (antibody, human IgG1, V domains shown, MMD conjugated through mc-VC-PAB linker; attachment residues not stated) VH: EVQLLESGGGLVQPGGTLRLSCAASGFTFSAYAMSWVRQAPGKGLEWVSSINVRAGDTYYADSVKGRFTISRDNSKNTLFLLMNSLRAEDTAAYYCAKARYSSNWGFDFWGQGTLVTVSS VL: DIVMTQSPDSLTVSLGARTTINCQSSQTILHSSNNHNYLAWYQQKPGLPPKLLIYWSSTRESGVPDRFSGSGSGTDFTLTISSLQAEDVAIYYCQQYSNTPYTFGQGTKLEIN What is its recorded IC50, cell viability, T47D cells?
Result: 1

Q: Let us now turn to H1H6953N-mc-VC-PAB-MeNHC3-May (antibody, human IgG1, V domains shown, MeNHC3-May conjugated through mc-VC-PAB linker; attachment residues not stated) VH: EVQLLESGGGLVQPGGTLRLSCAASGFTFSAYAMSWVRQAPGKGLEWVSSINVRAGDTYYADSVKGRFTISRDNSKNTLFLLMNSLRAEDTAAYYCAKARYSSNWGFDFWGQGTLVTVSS VL: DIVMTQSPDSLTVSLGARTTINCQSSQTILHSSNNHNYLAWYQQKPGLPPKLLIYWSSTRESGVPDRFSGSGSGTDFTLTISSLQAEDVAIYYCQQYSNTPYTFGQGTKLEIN
Result: 1

***
Q: Consider the binder shown here: H1H6958N2-DM1 (antibody, human IgG1, V domains shown, DM1 conjugated through SMCC linker; attachment residues not stated) VH: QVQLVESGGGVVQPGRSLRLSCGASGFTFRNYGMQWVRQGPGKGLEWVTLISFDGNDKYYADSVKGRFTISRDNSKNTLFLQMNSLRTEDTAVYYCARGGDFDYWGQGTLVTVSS VL: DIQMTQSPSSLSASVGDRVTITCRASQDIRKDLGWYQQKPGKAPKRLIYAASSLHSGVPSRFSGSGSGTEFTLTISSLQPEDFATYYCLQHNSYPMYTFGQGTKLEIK What is its recorded IC50, cell viability, T47D cells?
Result: 2
